- EXPERIMENT_NOTES: Volume of distribution at steady state in dog at 0.1 mg/kg, iv administered as 30 mins infusion
- Assay type: ADME, organism-based, Canis lupus familiaris
- TEST_SETTINGS: in vivo, read-out: Vdss
EXPERIMENTAL_READOUT: Vd (L/kg)
Express the result in L/kg but write the number alone.

[ask] Form field: reported Vd of CCc1cc(O)c(F)cc1-c1ccc2c(-c3nc4c([nH]3)CCN(C(=O)c3cnc(N5CCCCC5)cn3)C4)n[nH]c2c1
[reply] 1

###

- Test system: Liver
- EXPERIMENT_NOTES: Metabolic stability in human liver microsomes assessed per mg protein
- Type: ADME, microsome
Below: a set of entries, each annotated with reported Stability.
Express the result in µL/min but write the number alone.

# example entries with known answers
[
  {
    "SUBSTANCE_SMILES": "CCc1cc(O)ccc1-c1ccc2c(-c3nc4c([nH]3)CN(C(C)=O)CC4)n[nH]c2c1",
    "UNIT_DESCRIPTOR": "µL/min",
    "VAL": 42
  },
  {
    "SUBSTANCE_SMILES": "CCc1cc(O)c(F)cc1-c1ccc2c(-c3nc4c([nH]3)CN(Cc3ccccc3)CC4)n[nH]c2c1",
    "UNIT_DESCRIPTOR": "µL/min",
    "VAL": 75
  },
  {
    "SUBSTANCE_SMILES": "CCc1cc(O)ccc1-c1ccc2c(-c3nc4ccccc4[nH]3)n[nH]c2c1",
    "UNIT_DESCRIPTOR": "µL/min",
    "VAL": 35
  }
]

[ask] Request body: readout Stability, system Liver, query CCc1cc(O)c(F)cc1-c1ccc2c(-c3nc4c([nH]3)CCN(C(=O)c3ccc(F)cc3)C4)n[nH]c2c1 . Return the value.
[reply] 48

[ask] Moving on to CCc1cc(O)ccc1-c1ccc2c(-c3nc4c([nH]3)CN(S(C)(=O)=O)CC4)n[nH]c2c1
[reply] 18

###

- TESTED_TARGET: UniProtKB P23458
- Sequence (P23458 whole entry, the tested form may be a part): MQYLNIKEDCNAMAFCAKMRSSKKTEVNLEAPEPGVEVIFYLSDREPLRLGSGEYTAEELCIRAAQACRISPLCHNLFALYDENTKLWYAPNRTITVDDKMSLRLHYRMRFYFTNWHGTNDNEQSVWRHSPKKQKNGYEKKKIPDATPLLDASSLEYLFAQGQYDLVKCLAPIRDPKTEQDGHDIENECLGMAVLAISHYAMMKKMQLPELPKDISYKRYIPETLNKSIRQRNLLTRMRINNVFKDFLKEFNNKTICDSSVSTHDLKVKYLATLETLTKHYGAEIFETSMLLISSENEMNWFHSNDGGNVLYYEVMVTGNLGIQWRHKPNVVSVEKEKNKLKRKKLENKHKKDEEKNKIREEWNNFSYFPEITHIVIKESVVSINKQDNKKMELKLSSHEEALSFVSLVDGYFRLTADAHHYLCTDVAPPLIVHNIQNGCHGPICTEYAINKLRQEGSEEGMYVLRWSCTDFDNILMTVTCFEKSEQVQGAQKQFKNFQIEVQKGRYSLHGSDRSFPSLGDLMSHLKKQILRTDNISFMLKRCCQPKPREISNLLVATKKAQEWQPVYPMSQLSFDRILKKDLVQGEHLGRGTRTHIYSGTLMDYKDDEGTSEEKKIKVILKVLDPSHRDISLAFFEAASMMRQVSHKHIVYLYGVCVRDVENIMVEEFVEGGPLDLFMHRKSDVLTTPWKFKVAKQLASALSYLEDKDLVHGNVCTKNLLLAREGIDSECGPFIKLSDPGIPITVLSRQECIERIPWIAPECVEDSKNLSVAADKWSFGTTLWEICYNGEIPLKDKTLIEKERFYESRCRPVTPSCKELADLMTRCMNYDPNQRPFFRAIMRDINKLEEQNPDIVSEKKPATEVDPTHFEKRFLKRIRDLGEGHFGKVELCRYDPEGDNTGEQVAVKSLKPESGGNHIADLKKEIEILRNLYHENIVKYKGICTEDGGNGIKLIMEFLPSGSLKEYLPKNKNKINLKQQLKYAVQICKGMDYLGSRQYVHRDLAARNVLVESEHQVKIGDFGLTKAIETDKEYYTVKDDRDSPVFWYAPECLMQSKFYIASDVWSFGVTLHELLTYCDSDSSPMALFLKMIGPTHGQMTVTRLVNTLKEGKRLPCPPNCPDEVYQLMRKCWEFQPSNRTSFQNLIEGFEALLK
- EXPERIMENT_NOTES: Inhibition of GST tagged human recombinant JAK1 catalytic domain expressed in baculovirus using peptide substrate preincubated for 60 mins followed by substrate addition and measured after 60 mins by microfluidic assay
EXPERIMENTAL_READOUT: pIC50
For clarity, pIC50 is expressed as the negative log10 of concentration in mol/L.

# example entries with known answers
[
  {
    "SUBSTANCE_SMILES": "CCc1cc(O)c(F)cc1-c1ccc2c(-c3nc4ccccc4[nH]3)n[nH]c2c1",
    "TESTED_TARGET": "UniProtKB P23458",
    "VAL": 9.10
  },
  {
    "SUBSTANCE_SMILES": "CCCc1cc(O)ccc1-c1ccc2c(-c3nc4ccccc4[nH]3)n[nH]c2c1",
    "TESTED_TARGET": "UniProtKB P23458",
    "VAL": 8.01
  },
  {
    "SUBSTANCE_SMILES": "CCc1cc(O)ccc1-c1ccc2c(-c3nc4ccccc4[nH]3)n[nH]c2c1",
    "TESTED_TARGET": "UniProtKB P23458",
    "VAL": 9.40
  },
  {
    "SUBSTANCE_SMILES": "CCc1cc(O)ccc1-c1ccc2c(C(=O)N(C)C)n[nH]c2c1",
    "TESTED_TARGET": "UniProtKB P23458",
    "VAL": 5.56
  },
  {
    "SUBSTANCE_SMILES": "CCc1cc(O)ccc1-c1ccc2c(C(=O)Nc3ccc(C)nc3)n[nH]c2c1",
    "TESTED_TARGET": "UniProtKB P23458",
    "VAL": 7.22
  },
  {
    "SUBSTANCE_SMILES": "CCc1cc(O)ccc1-c1ccc2c(-c3ncc[nH]3)n[nH]c2c1",
    "TESTED_TARGET": "UniProtKB P23458",
    "VAL": 9.05
  },
  {
    "SUBSTANCE_SMILES": "C[C@@H]1CCN(C(=O)N2CC[C@@H](S(=O)(=O)c3cccc(O)c3)C2)C[C@@H]1N(C)c1ncnc2[nH]ccc12",
    "TESTED_TARGET": "UniProtKB P23458",
    "VAL": 8.64
  },
  {
    "SUBSTANCE_SMILES": "C[C@@H]1CCN(C(=O)N2CCCC2)C[C@@H]1N(C)c1ncnc2[nH]ccc12",
    "TESTED_TARGET": "UniProtKB P23458",
    "VAL": 7.43
  }
]

[ask] Form field: reported pIC50 of CCc1cc(O)ccc1-c1ccc2c(-c3nc4c([nH]3)CN(C)CC4)n[nH]c2c1
[reply] 8.68

[ask] Moving on to Oc1cccc(-c2ccc3c(-c4nc5ccccc5[nH]4)n[nH]c3c2)c1
[reply] 7.16

[ask] Moving on to CCc1cc(O)ccc1-c1ccc2c(C(=O)NC)n[nH]c2c1
[reply] 8.12

[ask] Moving on to CC(C)c1cc(O)ccc1-c1ccc2c(-c3nc4ccccc4[nH]3)n[nH]c2c1
[reply] 7.57

[ask] Moving on to CCc1cc(O)ccc1-c1ccc2c(-c3nc4c([nH]3)CN(S(C)(=O)=O)CC4)n[nH]c2c1
[reply] 8.89

[ask] Moving on to CCc1cc(O)ccc1-c1ccc2c(-c3nc4c([nH]3)CN(C(C)=O)CC4)n[nH]c2c1
[reply] 9.30

[ask] Moving on to CCc1cc(O)c(F)cc1-c1ccc2c(-c3nc4c([nH]3)CN(Cc3ccccc3)CC4)n[nH]c2c1
[reply] 8.74

[ask] Moving on to CCc1cc(O)ccc1-c1ccc2c(C(N)=O)n[nH]c2c1
[reply] 8.77

###

- EXPERIMENT_NOTES: Volume of distribution at steady state in rat at 0.5 mg/kg, iv
- Type: ADME, organism-based
- TEST_SETTINGS: in vivo, read-out: Vdss
EXPERIMENTAL_READOUT: Vd
# output: numeric value plus its unit

[ask] Form field: reported Vd of CCc1cc(O)c(F)cc1-c1ccc2c(-c3nc4c([nH]3)CCN(C(=O)c3cnc(N5CCCCC5)cn3)C4)n[nH]c2c1
[reply] 0.8 L/kg

###

- TESTED_TARGET: Tyrosine-protein kinase JAK2 (Homo sapiens)
- Sequence (O60674 whole entry, the tested form may be a part): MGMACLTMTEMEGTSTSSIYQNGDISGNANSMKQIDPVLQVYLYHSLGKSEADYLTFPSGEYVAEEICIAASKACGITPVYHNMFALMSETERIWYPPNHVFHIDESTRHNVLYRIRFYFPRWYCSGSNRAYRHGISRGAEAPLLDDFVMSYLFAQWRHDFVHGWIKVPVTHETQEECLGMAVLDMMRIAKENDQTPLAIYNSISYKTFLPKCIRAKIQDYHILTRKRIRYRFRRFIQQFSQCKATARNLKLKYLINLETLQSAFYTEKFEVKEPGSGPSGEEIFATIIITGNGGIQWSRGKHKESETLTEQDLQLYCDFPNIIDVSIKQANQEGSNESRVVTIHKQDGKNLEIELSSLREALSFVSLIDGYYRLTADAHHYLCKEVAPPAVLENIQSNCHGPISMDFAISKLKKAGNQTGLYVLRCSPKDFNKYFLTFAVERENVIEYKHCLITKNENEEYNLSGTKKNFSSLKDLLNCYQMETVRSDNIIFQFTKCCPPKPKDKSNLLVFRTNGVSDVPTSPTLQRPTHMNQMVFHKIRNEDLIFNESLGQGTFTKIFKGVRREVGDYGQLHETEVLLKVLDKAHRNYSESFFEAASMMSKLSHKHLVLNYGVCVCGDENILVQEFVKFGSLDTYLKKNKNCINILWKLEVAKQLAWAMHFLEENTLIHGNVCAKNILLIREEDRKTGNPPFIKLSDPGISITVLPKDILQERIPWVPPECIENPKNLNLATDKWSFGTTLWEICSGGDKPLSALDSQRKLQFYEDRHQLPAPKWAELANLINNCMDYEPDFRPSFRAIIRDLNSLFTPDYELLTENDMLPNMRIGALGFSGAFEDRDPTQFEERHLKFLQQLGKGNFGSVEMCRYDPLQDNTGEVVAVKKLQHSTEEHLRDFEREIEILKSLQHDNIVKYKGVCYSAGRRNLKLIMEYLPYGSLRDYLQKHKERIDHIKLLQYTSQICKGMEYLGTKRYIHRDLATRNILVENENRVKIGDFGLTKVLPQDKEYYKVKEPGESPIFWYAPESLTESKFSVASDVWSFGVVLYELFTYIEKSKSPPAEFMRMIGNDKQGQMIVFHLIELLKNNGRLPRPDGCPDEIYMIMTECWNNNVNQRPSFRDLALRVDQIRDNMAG
- EXPERIMENT_NOTES: Inhibition of GST tagged human recombinant JAK2 catalytic domain expressed in baculovirus using peptide substrate preincubated for 60 mins followed by substrate addition and measured after 60 mins by microfluidic assay
Below: a set of entries, each annotated with reported IC50.

# example entries with known answers
[
  {
    "SUBSTANCE_SMILES": "C[C@@H]1CCN(C(=O)N2CC[C@@H](S(=O)(=O)c3cccc(O)c3)C2)C[C@@H]1N(C)c1ncnc2[nH]ccc12",
    "EXPERIMENTAL_READOUT": "IC50",
    "VAL": "21.2 nM"
  },
  {
    "SUBSTANCE_SMILES": "CCc1cc(O)ccc1-c1ccc2c(-c3nc4c([nH]3)CN(S(C)(=O)=O)CC4)n[nH]c2c1",
    "EXPERIMENTAL_READOUT": "IC50",
    "VAL": "5.6 nM"
  },
  {
    "SUBSTANCE_SMILES": "Oc1cccc(-c2ccc3c(-c4nc5ccccc5[nH]4)n[nH]c3c2)c1",
    "EXPERIMENTAL_READOUT": "IC50",
    "VAL": "101 nM"
  },
  {
    "SUBSTANCE_SMILES": "CC(C)c1cc(O)ccc1-c1ccc2c(-c3nc4ccccc4[nH]3)n[nH]c2c1",
    "EXPERIMENTAL_READOUT": "IC50",
    "VAL": "79.6 nM"
  },
  {
    "SUBSTANCE_SMILES": "CCc1cc(O)ccc1-c1ccc2c(C(=O)N(C)C)n[nH]c2c1",
    "EXPERIMENTAL_READOUT": "IC50",
    "VAL": "> 10000 nM"
  }
]

[ask] Form field: reported IC50 of CCc1cc(O)ccc1-c1ccc2c(C(=O)NC)n[nH]c2c1
[reply] 40.9 nM

[ask] Moving on to CCc1cc(O)ccc1-c1ccc2c(-c3nc4c([nH]3)CN(C)CC4)n[nH]c2c1
[reply] 6.4 nM

[ask] Moving on to CCc1cc(O)ccc1-c1ccc2c(-c3ncc[nH]3)n[nH]c2c1
[reply] 0.8 nM

[ask] Moving on to CCc1cc(O)c(F)cc1-c1ccc2c(-c3nc4c([nH]3)CN(Cc3ccccc3)CC4)n[nH]c2c1
[reply] 15.9 nM

[ask] Moving on to CCc1cc(O)ccc1-c1ccc2c(-c3nc4c([nH]3)CN(C(C)=O)CC4)n[nH]c2c1
[reply] 3.3 nM

[ask] Moving on to CCc1cc(O)c(F)cc1-c1ccc2c(-c3nc4c([nH]3)CCN(C(=O)c3ccc(F)cc3)C4)n[nH]c2c1
[reply] 0.3 nM

[ask] Moving on to CCCc1cc(O)ccc1-c1ccc2c(-c3nc4ccccc4[nH]3)n[nH]c2c1
[reply] 17.3 nM

[ask] Moving on to CCc1cc(O)ccc1-c1ccc2c(-c3nc4ccccc4[nH]3)n[nH]c2c1
[reply] 2.2 nM

[ask] Moving on to CCc1cc(O)ccc1-c1ccc2c(C(=O)Nc3ccc(C)nc3)n[nH]c2c1
[reply] 58.8 nM

[ask] Moving on to CCc1cc(O)ccc1-c1ccc2c(C(N)=O)n[nH]c2c1
[reply] 4.2 nM

[ask] Moving on to CCc1cc(O)c(F)cc1-c1ccc2c(-c3nc4ccccc4[nH]3)n[nH]c2c1
[reply] 7.9 nM

[ask] Moving on to C[C@@H]1CCN(C(=O)N2CCCC2)C[C@@H]1N(C)c1ncnc2[nH]ccc12
[reply] 124 nM

[ask] Moving on to CCc1cc(O)c(F)cc1-c1ccc2c(-c3nc4c([nH]3)CCN(C(=O)c3cnc(N5CCCCC5)cn3)C4)n[nH]c2c1
[reply] 23.1 nM

Hey, just so you know, these numbers are from ChEMBL document CHEMBL4002590.
